Test system: Escherichia coli TOP10;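 further: peptides expressed intracellularly from a pBAD plasmid library in pooled LB shake-flask culture, induced with 0.3% L-arabinose, DNA abundance read by NGS, three biological replicates, DESeq2 with apeglm shrinkage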
Experiment: shrunken log2 fold change of peptide-encoding DNA abundance (4.5 h post-induction vs induction); higher = less antimicrobial activity (less host growth inhibition)
Conditions: time post-induction: 4.5 h; library: site-saturation at positions 5, 18, 19, 20
recordedEndpoint: shrunken log2 fold change
Keep the answer to the number alone.

# query: shrunken log2 fold change of entry "RRIRYRPPRLPRPRPRPSWIPRP"
-0.341

# query: shrunken log2 fold change of entry "RRIRWRPPRLPRPRPRPCDMPRP"
-0.173

# query: shrunken log2 fold change of entry "RRIRLRPPRLPRPRPRPQGTPRP"
0.0413

# query: shrunken log2 fold change of entry "RRIRFRPPRLPRPRPRPHDIPRP"
-0.0788

# query: shrunken log2 fold change of entry "RRIRYRPPRLPRPRPRPFCRPRP"
-0.228

# query: shrunken log2 fold change of entry "RRIRFRPPRLPRPRPRPIKQPRP"
-0.0488

# query: shrunken log2 fold change of entry "RRIRFRPPRLPRPRPRPHNGPRP"
-0.0493

# query: shrunken log2 fold change of entry "RRIRSRPPRLPRPRPRPQFHPRP"
-0.206

# query: shrunken log2 fold change of entry "RRIRWRPPRLPRPRPRPNNFPRP"
-0.0323

# query: shrunken log2 fold change of entry "RRIRKRPPRLPRPRPRPGFDPRP"
0.98

# query: shrunken log2 fold change of entry "RRIRFRPPRLPRPRPRPADKPRP"
0.0852

# query: shrunken log2 fold change of entry "RRIRRRPPRLPRPRPRPAPIPRP"
0.92

# query: shrunken log2 fold change of entry "RRIRSRPPRLPRPRPRPPEKPRP"
0.797

# query: shrunken log2 fold change of entry "RRIRRRPPRLPRPRPRPYDRPRP"
-0.164

# query: shrunken log2 fold change of entry "RRIRRRPPRLPRPRPRPHAAPRP"
0.837

# query: shrunken log2 fold change of entry "RRIRKRPPRLPRPRPRPYQRPRP"
-0.0062

# query: shrunken log2 fold change of entry "RRIRIRPPRLPRPRPRPLFMPRP"
-0.756

# query: shrunken log2 fold change of entry "RRIRCRPPRLPRPRPRPVHAPRP"
0.065

# query: shrunken log2 fold change of entry "RRIRMRPPRLPRPRPRPHREPRP"
0.104

# query: shrunken log2 fold change of entry "RRIRWRPPRLPRPRPRPHRFPRP"
0.077

# query: shrunken log2 fold change of entry "RRIRYRPPRLPRPRPRPCSHPRP"
-0.566

# query: shrunken log2 fold change of entry "RRIRCRPPRLPRPRPRPNDMPRP"
-0.328

# query: shrunken log2 fold change of entry "RRIRIRPPRLPRPRPRPTMNPRP"
-1.01

# query: shrunken log2 fold change of entry "RRIRPRPPRLPRPRPRPSIQPRP"
-0.696

# query: shrunken log2 fold change of entry "RRIRQRPPRLPRPRPRPDQKPRP"
0.019

# query: shrunken log2 fold change of entry "RRIRLRPPRLPRPRPRPAKKPRP"
0.0858

# query: shrunken log2 fold change of entry "RRIRHRPPRLPRPRPRPRSIPRP"
-0.374
